System: VCAM-1
Assay: In Vitro VCAM-1 Assay (TNF-α stimulated endothelial cells, cell-surface ELISA)
Type: cell-based
Settings: primary human aortic (HAEC) or pulmonary (HPAEC) endothelial cells, TNF-α 1 ng/ml, approximately 16 hours, ELISA OD 450 nm; sodium salt
pIC50: −log10 of the molar value.
measured_property: pIC50

Which value of pIC50 has been reported for COc1cc(OC)c(-c2cc3ccccc3[nH]2)cc1/C=C/C(=O)c1ccc(S(=O)(=O)[N-]C(C)=O)cc1.[Na+] [Example 43, sodium salt] in the records?
> 5.30

* * *

System: VCAM-1
Experiment: In Vitro VCAM-1 Assay (TNF-α stimulated endothelial cells, cell-surface ELISA)
Assay type: cell-based
Settings: Homo sapiens, Endothelial cell, 16 h, primary human aortic (HAEC) or pulmonary (HPAEC) endothelial cells, TNF-α 1 ng/ml, approximately 16 hours, ELISA OD 450 nm
// IC50 lookup, one value per entry

Below are worked cases with known answers.
compound_structure_string=COc1cc(OC)c(N2CCCC2)cc1/C=C/C(=O)c1ccc(S(=O)(=O)Nc2cc(C)on2)cc1 measured_property=IC50 result="< 5 µM"
compound_structure_string=COc1cc(OCCCO)c(/C=C/C(=O)c2ccc(S(=O)(=O)Nc3cc(C)on3)cc2)cc1-c1cccs1 measured_property=IC50 result="< 5 µM"
compound_structure_string=COc1cc(OC)c(-c2cccs2)cc1/C=C/C(=O)c1ccc(S(=O)(=O)NCC(=O)O)cc1 measured_property=IC50 result="> 10 µM"
compound_structure_string=COc1cc(OC)c(-c2cccs2)cc1/C=C/C(=O)c1ccc(S(=O)(=O)NCc2cccnc2)cc1 measured_property=IC50 result="< 5 µM"

Which value of IC50 has been reported for `COc1cc(OC)c(N2CCCC2)cc1/C=C/C(=O)c1ccc(S(=O)(=O)NCC(=O)O)cc1` in the records?
> 10 µM

Which value of IC50 has been reported for `COc1cc(OC)c(-c2cccs2)cc1/C=C/C(=O)c1ccc(S(=O)(=O)Nc2ccc(F)cn2)cc1` in the records?
< 5 µM

Which value of IC50 has been reported for `COc1cc(OC)c(N2CCCC2)cc1/C=C/C(=O)c1ccc(S(=O)(=O)NCCCN2CCN(C)CC2)cc1` in the records?
> 10 µM

* * *

// melting point lookup, one value per entry

molecule=COc1cc(OC)c(N2CCCC2)cc1/C=C/C(=O)c1ccc(S(=O)(=O)Nc2ccccn2)cc1 result="124 to 128 °C"
molecule=COc1cc(OC)c(-c2cccs2)cc1/C=C/C(=O)c1ccc(S(=O)(=O)Nc2ccc(Cl)cn2)cc1 result="228 to 229 °C"
molecule=COc1cc(OC)c(-c2cc3ccccc3[nH]2)cc1/C=C/C(=O)c1ccc(S(=O)(=O)Nc2ccccn2)cc1 result="206 to 208 °C"

Which value of melting point has been reported for `COc1cc(OC)c(-c2cccs2)cc1/C=C/C(=O)c1ccc(S(=O)(=O)Nc2nccs2)cc1` in the records?
220 to 221 °C

Which value of melting point has been reported for `COc1cc(OC)c(-c2cc3ccccc3[nH]2)cc1/C=C/C(=O)c1ccc(S(=O)(=O)NCCCn2ccnc2)cc1` in the records?
197 to 200 °C

* * *

// melting point lookup, one value per entry
Counter-ions that a name gives are not always drawn.

Below are worked cases with known answers.
compound=COc1cc(OC)c(-c2cccs2)cc1/C=C/C(=O)c1ccc(S(=O)(=O)NCC(=O)O)cc1 result="100 to 101 °C"
compound=COc1cc(OC)c(-c2cc3ccccc3n2C)cc1/C=C/C(=O)c1ccc(S(=O)(=O)NO)cc1 result="> 260 °C"
compound=COc1cc(OC)c(-c2cc3ccccc3[nH]2)cc1/C=C/C(=O)c1ccc(S(=O)(=O)[N-]C(=O)C(C)C)cc1.[Na+] result="249 to 251 °C (dec.)"
compound=COc1cc(OC)c(-c2cc3ccccc3[nH]2)cc1/C=C/C(=O)c1ccc(S(=O)(=O)NC(C)=O)cc1 result="218 to 220 °C"
compound=CNS(=O)(=O)c1ccc(C(=O)/C=C/c2cc(-c3cc4ccccc4n3C)c(OC)cc2OC)cc1 result="129 to 131 °C"
compound=COc1cc(OCCN2CCOCC2)c(/C=C/C(=O)c2ccc(S(=O)(=O)Nc3cc(C)on3)cc2)cc1-c1cccs1.Cl result="> 260 °C"
compound=COc1cc(OC)c(-c2cccs2)cc1/C=C/C(=O)c1ccc(S(=O)(=O)NCCCn2ccnc2)cc1 result="160 to 162 °C"
compound=COc1cc(OCCCO)c(/C=C/C(=O)c2ccc(S(=O)(=O)Nc3cc(C)on3)cc2)cc1-c1cccs1 result="178 to 182 °C"

Which value of melting point has been reported for COc1cc(OC)c(-c2cccs2)cc1/C=C/C(=O)c1ccc(S(=O)(=O)NCC(F)(F)F)cc1 (as salt: sodium) [Example 25] in the records?
160 to 170 °C

Which value of melting point has been reported for `CCCC(=O)[N-]S(=O)(=O)c1ccc(C(=O)/C=C/c2cc(-c3cc4ccccc4[nH]3)c(OC)cc2OC)cc1.[Na+]` in the records?
191 to 193 °C

* * *

Counter-ions that a name gives are not always drawn.
// melting point lookup, one value per entry

molecule=COc1cc(OCC(CO)CO)c(/C=C/C(=O)c2ccc(S(=O)(=O)Nc3cc(C)on3)cc2)cc1-c1cccs1 measured_property="melting point" result="165 to 166 °C"

Which value of melting point has been reported for `COc1cc(OC)c(-c2cccs2)cc1/C=C/C(=O)c1ccc(S(=O)(=O)Nc2cc[nH]n2)cc1` in the records?
142 to 145 °C

Which value of melting point has been reported for `COc1cc(OC)c(-c2cc3ccccc3n2C)cc1/C=C/C(=O)c1ccc(S(=O)(=O)NCCN2CCOCC2)cc1` in the records?
167 to 168 °C

Which value of melting point has been reported for `COc1cc(OC)c(-c2cc3ccccc3n2C)cc1/C=C/C(=O)c1ccc(S(=O)(=O)NO[Si](C)(C)C(C)(C)C)cc1` in the records?
129 to 131 °C

Which value of melting point has been reported for COc1cc(OC)c(-c2cc3ccccc3n2C)cc1/C=C/C(=O)c1ccc(S(=O)(=O)Nc2cc(C)on2)cc1 (as salt: sodium) in the records?
202 to 206 °C

Which value of melting point has been reported for `CCOC(=O)[N-]S(=O)(=O)c1ccc(C(=O)/C=C/c2cc(-c3cc4ccccc4[nH]3)c(OC)cc2OC)cc1.[K+]` in the records?
220 to 222 °C

Which value of melting point has been reported for `CCC(=O)NS(=O)(=O)c1ccc(C(=O)/C=C/c2cc(-c3cc4ccccc4[nH]3)c(OC)cc2OC)cc1` in the records?
223 to 225 °C

Which value of melting point has been reported for `COc1cc(OC)c(-c2cccs2)cc1/C=C/C(=O)c1ccc(S(=O)(=O)Nc2ncccn2)cc1` in the records?
215 °C (dec.)

Which value of melting point has been reported for `COc1cc(OC)c(-c2cccs2)cc1/C=C/C(=O)c1ccc(S(=O)(=O)Nc2ccccn2)cc1` in the records?
141 to 143 °C
